Experiment: Plasma protein binding in mouse plasma at 10 uM, equilibrium dialysis
Format: in vitro ADME
Details: mouse, mouse plasma, pH 7.4
measured_endpoint: recovery at 6 h, 10 µM (%)
Give the value, in units of %, as a plain number.

1. CC(C)c1cc(-c2cn3c(-c4ccc5[nH]ncc5c4F)c(C4CC4)nc3cn2)ccc1F    76.1

For the compound shown here, Fc1ccc(-c2cn3c(-c4ccc5[nH]ncc5c4F)c(C(F)(F)F)nc3cn2)cc1C(F)(F)C(F)(F)F , give the reported recovery at 6 h, 10 µM. 96.9

Fill blank: measured recovery at 6 h, 10 µM of the compound Fc1c(-c2c(C(F)(F)F)nc3cnc(-c4cccc(C(F)(F)C(F)(F)F)c4)cn23)ccc2[nH]ncc12 is ____. 80.8

---

Test: Metabolic stability in human hepatocytes
Format: in vitro ADME
Details: hepatocytes (suspension), pH 7.4, 30 min incubation, read-out: Human hepatocyte % remaining at 30 min
Measured remaining at 0.5 h, 1 µM values are reported for all entries that follow.

1. CC(C)c1nc2cnc(-c3ccc(F)c(C(F)(F)F)c3)cn2c1-c1ccc2[nH]ncc2c1F    99%

Turning now to a further compound:
# get_value(readout='remaining at 0.5 h, 1 µM', item= CC(C)c1nc2cnc(-c3ccc(F)c(C(F)(F)F)c3)cn2c1-c1c(F)cc(O)cc1F ) 52%

---

Test: Mouse pharmacokinetics;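 also: three mice per experiment, dosed in 10% DMSO with 50 mM Na2HPO4 buffer plus Tween-80, plasma levels quantified by LC-MS against a calibration line prepared in blank matrix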
Format: in vivo
Settings: male, Swiss albino, plasma, oral, plasma level after 24 h scaled from […] dose, scaled to the efficacy dose (dose not given), read-out: plasma level after 24 h scaled from 2.5 mg/kg dose
measured_endpoint: concentration at 24 h (ng/mL)
Hi! Could you send only the number? It should be in ng/mL, unit omitted.

Which concentration at 24 h is reported for this compound? CC(C)c1nc2cnc(-c3ccc(F)c(C(F)(F)F)c3)cn2c1-c1ccc2[nH]ncc2c1F [LSHTM-3604] 1430

---

Assay: In vivo efficacy, mouse model of juvenile (21-day old) S. mansoni infection
Conditions: female, CD1, plasma; mouse, Juvenile infection, oral 25 mg/kg, formulation Aq; read-out: Plasma conc @24 h (efficacy experiment)
measured_endpoint: concentration at 24 h (ng/mL)
Your answer should be a plain number; it is taken to be in ng/mL.

# concentration at 24 h lookup, item Fc1ccc(-c2cn3c(-c4ccc5[nH]ncc5c4F)c(C(F)(F)F)nc3cn2)cc1C(F)(F)F 1700

---

Test: In vivo efficacy, mouse model of adult (42-day old) S. mansoni infection
Settings: female, CD1, mouse, plasma, po, mouse, Adult infection, oral 6.25x2 mg/kg (12 h apart), formulation corn oil; read-out: Plasma conc @24 h (efficacy experiment)
measured_endpoint: concentration at 24 h

// concentration at 24 h lookup, key: CC(C)c1cc(-c2cn3c(-c4ccc5[nH]ncc5c4F)c(C4CC4)nc3cn2)ccc1F [LSHTM-3686] 241 ng/mL

---

Listing of entries alongside the reported solubility kinetic at 24 h.
Assay: Kinetic solubility
Assay type: physicochemical
Conditions: FaSSIF, pH 6.5; read-out: Kinetic solubility, FaSSIF
Please reply with the bare figure in µM and do not write the unit itself.

1) CC(C)c1cc(-c2cn3c(-c4ccc5[nH]ncc5c4F)c(C4CC4)nc3cn2)ccc1F    33.9
2) Fc1ccc(-c2cn3c(-c4ccc5[nH]ncc5c4F)c(C(F)(F)F)nc3cn2)cc1C(F)(F)C(F)(F)F    199

What does the data say about its solubility kinetic at 24 h? Entry: Fc1c(-c2c(C(F)(F)F)nc3cnc(-c4cccc(C(F)(F)C(F)(F)F)c4)cn23)ccc2[nH]ncc12 200

I am curious: what solubility kinetic at 24 h value has been reported for Fc1ccc(-c2cn3c(-c4ccc5[nH]ncc5c4F)c(C(F)(F)F)nc3cn2)cc1C(F)(F)F ? 196

Entry CC(C)Oc1cc(-c2cn3c(-c4ccc5[nH]ncc5c4F)c(C(F)(F)F)nc3cn2)ccc1F : reported solubility kinetic at 24 h = ? 188

Where do the numbers come from? From paper PMC8321398.
